These measurements were taken from patent US9216999B2.

Field: IC50. Provide a value for each of the molecules that follow.
measurement target: JAK2 (Homo sapiens (Human))
assay protocol: Enzyme assay (Assay Example^a 1), JAK2
Assay type: biochemical
conditions used: ATP 100 μM
Value expressed in µM; do not type the unit.

**Q:** Lab request: please report IC50 under test system JAK2 (Homo sapiens (Human)) for FC(F)(F)CN[C@H]1CC[C@H](c2nnn3cnc4[nH]ccc4c23)CC1 [395b]
**A:** 0.01

**Q:** Then Fc1ccc(NC[C@H]2CC[C@H](c3nnn4cnc5[nH]ccc5c34)CC2)cc1C(F)(F)F [compound 251] ?
**A:** 0.2

**Q:** How about this molecule: NC(=O)C1CCN(C[C@H]2CC[C@H](c3nnn4cnc5[nH]ccc5c34)CC2)CC1 [compound 261]
**A:** 0.091

**Q:** Thanks! And c1cc2c(ncn3nnc([C@H]4CC[C@H](CNC5CCC5)CC4)c23)[nH]1 [compound 283] ?
**A:** 0.11

**Q:** Repeat with c1cc2c(ncn3nnc([C@H]4CC[C@H](NCC5CC5)CC4)c23)[nH]1 [396b]
**A:** 0.19

**Q:** Here is the next molecule: CC(C)(C)OC(=O)N1CC[C@H](NC[C@H]2CC[C@H](c3nnn4cnc5[nH]ccc5c34)CC2)C1 [compound 337]
**A:** 0.34

**Q:** Follow-up entry: CS(=O)(=O)NC[C@H]1CC[C@H](c2nnn3cnc4[nH]ccc4c23)CC1 [compound 427]
**A:** 0.0012

**Q:** Another molecule: N#CCc1ccc(NC[C@H]2CC[C@H](c3nnn4cnc5[nH]ccc5c34)CC2)cc1 [compound 264]
**A:** 0.032
